measured-target: PDE4B (human recombinant) (Homo sapiens)
Construct: made in house
experiment-summary: Inhibition of PDE4B activity: radioactive SPA or IMAP Fluorescence Polarisation (FP) assay
Format: biochemical
stated-conditions: PDE4B inhibitory activity, one reading or average of ca. 2-6 readings, read-out: PDE4B pIC50 (± about 0.5) (converted)
Please respond with reported IC50 for every item in the list.

Input: # get_value(readout='IC50', item= CCn1ncc2c(NC3CCOCC3)c(C(=O)NCc3ccc(OC)c(OC)c3)cnc21 )
Output: 0.1 to 6.31 nM

Input: Using the record for CCn1ncc2c(NC3CCN(C(C)=O)CC3)c(C(=O)NCc3ccccc3)cnc21 , report its IC50.
Output: 12.6 to 100 nM

Input: Suppose we examine the compound CCOC(=O)c1cnc2c(cnn2CC)c1NC1CCCC1 ; what IC50 value has been reported?
Output: 12.6 to 100 nM

Input: Give its IC50 value. Item: CCn1ncc2c(NC3CCOCC3)c(C(=O)NCc3cccc(C)c3C)cnc21
Output: 0.1 to 6.31 nM

Input: Name the recorded IC50 for CCn1ncc2c(NC3CCCCC3)c(C(=O)NCc3ccncc3)cnc21 .
Output: 20 nM

---

measured-target: PDE4B (human recombinant) (Homo sapiens, UniProt Q07343)
Construct: made in house
Sequence (Q07343 1-564 isoform Q07343-2): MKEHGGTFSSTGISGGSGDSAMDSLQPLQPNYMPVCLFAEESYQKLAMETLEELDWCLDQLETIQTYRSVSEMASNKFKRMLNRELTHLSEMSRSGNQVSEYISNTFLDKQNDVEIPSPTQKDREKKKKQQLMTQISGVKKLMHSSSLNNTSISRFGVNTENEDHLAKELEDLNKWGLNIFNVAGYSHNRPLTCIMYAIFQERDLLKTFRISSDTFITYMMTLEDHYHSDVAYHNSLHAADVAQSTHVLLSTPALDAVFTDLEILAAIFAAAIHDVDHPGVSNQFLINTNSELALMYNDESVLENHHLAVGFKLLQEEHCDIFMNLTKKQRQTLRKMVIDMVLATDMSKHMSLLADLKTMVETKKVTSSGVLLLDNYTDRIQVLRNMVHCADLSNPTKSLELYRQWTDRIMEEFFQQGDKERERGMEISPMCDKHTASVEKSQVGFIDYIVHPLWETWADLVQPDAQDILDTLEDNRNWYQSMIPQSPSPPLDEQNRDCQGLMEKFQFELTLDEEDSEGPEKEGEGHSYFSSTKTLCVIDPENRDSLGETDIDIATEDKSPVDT
experiment-summary: Inhibition of PDE4B activity: radioactive SPA or IMAP Fluorescence Polarisation (FP) assay
Type: biochemical
stated-conditions: PDE4B inhibitory activity, one reading or average of ca. 2-6 readings, read-out: PDE4B pIC50 (± about 0.5) (converted)
Exercise: state measured IC50 for each of the compounds provided.

Input: Quick one: IC50 for CCc1ccc(CNC(=O)c2cnc3c(cnn3CC)c2NC2CCOCC2)cc1 ?
Output: 0.1 to 6.31 nM

Input: Please give the measured IC50 for this compound: CCn1ncc2c(NC3CCOCC3)c(C(=O)NCc3ccc(Cl)cc3C)cnc21
Output: 0.1 to 6.31 nM

Input: What does the record list as IC50 for CCn1ncc2c(NC3CCOCC3)c(C(=O)NCc3ccc(Br)cc3)cnc21 ?
Output: 0.1 to 6.31 nM

Input: Would you kindly share the measured IC50 for CCC(CC)CNC(=O)c1cnc2c(cnn2CC)c1NC1CCOCC1 ?
Output: 12.6 to 100 nM

Input: Please give the measured IC50 for this compound: CCOC(=O)c1cnc2c(cnn2CC)c1NC1CCOCC1
Output: 15.8 nM

Input: // query IC50 value for entry CCn1ncc2c(NC3CCOCC3)c(C(=O)NCc3ccc(C)cc3C)cnc21
Output: 0.1 to 6.31 nM

Input: So what does the record say about IC50 for CCOC(=O)c1cnc2c(cnn2CC)c1NC1CCSC1 (racemic) ?
Output: 39.8 nM

Input: Any idea what its IC50 is? The compound is CCn1ncc2c(NC3CCOCC3)c(C(=O)NCc3ccc(Cl)cc3F)cnc21
Output: 0.1 to 6.31 nM

Input: Using the record for CCn1ncc2c(NC3CCOCC3)c(C(=O)NCc3ccc(CC(C)C)cc3)cnc21 , report its IC50.
Output: 0.1 to 6.31 nM

Input: Entry CCn1ncc2c(NC3CCCCC3)c(C(=O)NCc3ccccc3)cnc21 has what IC50?
Output: 5.01 nM

Input: # input compound: CCn1ncc2c(NC3CCCC(O)C3)c(C(=O)NCc3ccccc3)cnc21 (stereo not drawn) ; wanted: its IC50
Output: 3.16 nM

Input: Sample CCn1ncc2c(NC3CCC(=O)CC3)c(C(=O)NCc3ccc(OC)cc3)cnc21 — what was its IC50?
Output: 0.1 to 6.31 nM

Input: Which IC50 value is on record for CCn1ncc2c(NC3CCOCC3)c(C(=O)NCc3c(CO)ccc(Cl)c3Cl)cnc21 ?
Output: 0.1 to 6.31 nM

Input: Return reported IC50; argument: CCn1ncc2c(NC3CCOCC3)c(C(=O)NCc3ccc(C(C)C)cc3)cnc21
Output: 0.1 to 6.31 nM

Input: Reported IC50 for CCn1ncc2c(NC3CCCC3)c(C(=O)NCc3ccccc3)cnc21 : what is it?
Output: 12.6 to 100 nM

Input: Suppose we examine the compound CCn1ncc2c(NC3CCC(=O)CC3)c(C(=O)NCc3cccc(Cl)c3Cl)cnc21 ; what IC50 value has been reported?
Output: 0.1 to 6.31 nM

Input: Look up IC50 for this compound: CCn1ncc2c(NC3CCOCC3)c(C(=O)NCc3ccc(C)cc3)cnc21
Output: 0.1 to 6.31 nM

Input: Recorded IC50 of CCn1ncc2c(NC3CCOCC3)c(C(=O)NC3Cc4ccccc4C3)cnc21 , please.
Output: 0.1 to 6.31 nM

---

So I've got a bunch of molecules here, and I need their IC50 values.
measured-target: PDE4B (human recombinant) (Homo sapiens, UniProt Q07343)
Construct: made in house
experiment-summary: Inhibition of PDE4B activity: radioactive SPA or IMAP Fluorescence Polarisation (FP) assay
Format: biochemical
stated-conditions: PDE4B inhibitory activity, one reading or average of ca. 2-6 readings, read-out: PDE4B pIC50 (± about 0.5) (converted)

Input: # returns recorded IC50 (system: PDE4B (human recombinant) (Homo sapiens, UniProt Q07343)) for CCNC(=O)c1cnc2c(cnn2CC)c1NC1CCOCC1
Output: 12.6 to 100 nM

Input: # query: IC50 | item CCn1ncc2c(NC3CCC(=O)CC3)c(C(=O)NCc3ccc(N(C)C)cc3)cnc21 | system: PDE4B (human recombinant) (Homo sapiens, UniProt Q07343)
Output: 0.1 to 6.31 nM

Input: For the record CCn1ncc2c(NC3CCOCC3)c(C(=O)NCc3cnn(C)c3)cnc21 , what value of IC50 is listed for PDE4B (human recombinant) (Homo sapiens, UniProt Q07343)?
Output: 12.6 to 100 nM

Input: Observed IC50 on PDE4B (human recombinant) (Homo sapiens, UniProt Q07343) for CCn1ncc2c(NC3CCOCC3)c(C(=O)NCc3ccc(C)c(C)c3)cnc21 , please.
Output: 0.1 to 6.31 nM

Input: Test system PDE4B (human recombinant) (Homo sapiens, UniProt Q07343); read-out IC50; what value for CCn1ncc2c(NC3CCC(=NO)CC3)c(C(=O)NCc3ccc(C(F)(F)F)cc3)cnc21 (stereo not drawn) ?
Output: 0.1 to 6.31 nM

Input: Lab note: need IC50 for CCn1ncc2c(NC3CCOCC3)c(C(=O)NCc3ccc(C)c(Cl)c3)cnc21 on PDE4B (human recombinant) (Homo sapiens, UniProt Q07343), anyone have it?
Output: 0.1 to 6.31 nM

Input: Query for PDE4B (human recombinant) (Homo sapiens, UniProt Q07343): what IC50 does the record show for CCn1ncc2c(NC3CCOCC3)c(C(=O)Nc3ccc(F)cc3)cnc21 ?
Output: 12.6 nM

Input: What reported IC50 corresponds to CCn1ncc2c(NC3CCOCC3)c(C(=O)NCc3c(C)cc(Cl)cc3Cl)cnc21 on PDE4B (human recombinant) (Homo sapiens, UniProt Q07343)?
Output: 0.1 to 6.31 nM

Input: Give the reported IC50 for CCn1ncc2c(NC3CCC(=O)CC3)c(C(=O)NCc3ccc(C)c(Cl)c3)cnc21 (system: PDE4B (human recombinant) (Homo sapiens, UniProt Q07343)).
Output: 0.1 to 6.31 nM

Input: Lab note: need IC50 for CCC(CC)CNC(=O)c1cnc2c(cnn2CC)c1NC1CCCC1 on PDE4B (human recombinant) (Homo sapiens, UniProt Q07343), anyone have it?
Output: 12.6 to 100 nM

Input: Find the measured IC50: item CCn1ncc2c(NC3CCC(=NO)CC3)c(C(=O)NCc3cccc(Cl)c3Cl)cnc21 (stereo not drawn) , target or system PDE4B (human recombinant) (Homo sapiens, UniProt Q07343).
Output: 0.1 to 6.31 nM

Input: # returns recorded IC50 (system: PDE4B (human recombinant) (Homo sapiens, UniProt Q07343)) for CCC(CC)CNC(=O)c1cnc2c(cnn2CC)c1NC1CCCCC1
Output: 12.6 to 100 nM

Input: Under PDE4B (human recombinant) (Homo sapiens, UniProt Q07343): IC50 value of CCn1ncc2c(NC3CCOCC3)c(C(=O)NCc3cccc(Cl)c3Cl)cnc21 ?
Output: 0.1 to 6.31 nM

Input: Record CCn1ncc2c(NC3CCC(=NO)CC3)c(C(=O)NCc3ccc(OC(F)F)cc3)cnc21 (stereo not drawn) : what is its IC50 with PDE4B (human recombinant) (Homo sapiens, UniProt Q07343)?
Output: 0.1 to 6.31 nM

Input: Lookup: IC50 / PDE4B (human recombinant) (Homo sapiens, UniProt Q07343) / CCn1ncc2c(NC3CCC(=O)CC3)c(C(=O)NCc3ccccc3)cnc21
Output: 0.1 to 6.31 nM

Input: Return IC50 measured with PDE4B (human recombinant) (Homo sapiens, UniProt Q07343) given this molecule: CCn1ncc2c(NC3CCCCC3)c(C(=O)Nc3ccc(F)cc3)cnc21
Output: 12.6 to 100 nM

Input: What measured IC50 is associated with CCn1ncc2c(NC3CCOCC3)c(C(=O)NCc3ccccn3)cnc21 on PDE4B (human recombinant) (Homo sapiens, UniProt Q07343)?
Output: 12.6 to 100 nM

Input: What reported IC50 corresponds to CCn1ncc2c(NC3CCC(=NO)CC3)c(C(=O)NCc3ccc(C)cc3C)cnc21 (stereo not drawn) on PDE4B (human recombinant) (Homo sapiens, UniProt Q07343)?
Output: 0.1 to 6.31 nM
